- System: HEK293
- protocol.details: Cytotoxic Profiling of Annotated Libraries Using Quantitative High-Throughput Screening (AID 1296008); also: potency is read from the fitted curve at half-maximal effect; nearly all actives have a fitted effect of over 60% in size
- condition: Five cell lines viability, CellTiter-Glo ATP luminescence, 48-72 h
Inconclusive results are not listed. Activity calls are given as the source filed them. Calls follow the shape of the dose curve; as a rule, active = well fitted inhibition curve with a large enough effect; inconclusive = small, poorly fitted or top-dose-only effect; inactive = flat fitted curve, though single readings scatter.
Recorded Potency by entry

| molecule | endpoint.label | reported.result |
| --- | --- | --- |
| Nc1ncnc2c1nc(Cl)n2C1OC2COP(=O)(O)OC2C1O (centres undefined) | Potency | 1.64 µM (active) |
| CN1CCN(c2ccc(Nc3cc(-c4cccc(-n5ccc6cc(C7CC7)cc(F)c6c5=O)c4CO)cn(C)c3=O)nc2)CC1 | Potency | 11.6 µM (active) |
| Cc1ccc(C(=O)Nc2ccc(CN3CCN(C)CC3)c(C(F)(F)F)c2)cc1C#Cc1cnc2[nH]ncc2c1 | Potency | 5.8 µM (active) |
| Cc1c[nH]c2ncnc(N3CCC(CN)(C(=O)Nc4cccc(OC(=O)N(C)C)c4)CC3)c12 | Potency | 3.66 µM (active) |
| C=C1C(=O)O[C@@H]2/C=C(\CO)CC/C=C(/C=O)C[C@@H](O)[C@@H]12 | Potency | 8.2 µM (active) |

Exercise: # query: Potency of entry `CCc1c[nH]c2ncnc(N3CC[C@](N)(CNC(=O)c4ccc(F)cc4F)C3)c12`
Solution: 1.16 µM (active)

Exercise: Any idea what Potency was measured for `Cc1cc(-c2ncc(-c3cccnc3)cc2/C=C/c2ccccc2)cnc1-c1cccnc1` ?
Solution: 2.59 µM (active)

Exercise: Can you share its Potency? I mean this molecule: `CC(/C=C/C(=O)NO)=C\[C@@H](C)C(=O)c1ccc(N(C)C)cc1`
Solution: 1.16 µM (active)

Exercise: Dear colleague, I am looking for the recorded Potency of the following molecule: `COc1c(C)cnc(Cn2cc(C#CCC(C)(C)O)c3c(Cl)nc(N)nc32)c1C`
Solution: 0.0517 µM (active)

Exercise: What value of Potency has been recorded for this entry: `O=S(=O)(NCc1cccc2ccccc12)c1cc(Cl)c(Oc2cccc(N3CCNCC3)c2)s1`
Solution: 10.3 µM (active)

Exercise: Name the recorded Potency for COc1ccc2c(c1)C(C(=O)N(Cc1ccc(N(C)C)cc1)c1ccc(C(C)C)cc1)CCC2 (centres undefined) .
Solution: 11.6 µM (active)

Exercise: Requested read-out: Potency. Entry: `O=c1ccc2ccc(OCCCCN3CCN(c4cccc5sccc45)CC3)cc2[nH]1`
Solution: 11.6 µM (active)

Exercise: // returns reported Potency for input `Cn1c(=O)c2c(ncn2Cc2ccc(C(C)(C)C)cc2)n(C)c1=O`
Solution: 1.64 µM (active)
